System: Fibroblast
Assay: Multiplex assay against human fibroblast
Format: toxicity, cell-based
Conditions: 48 h, 1 µM, compound concentration 1 uM, replicate 1
resultType: Population Hoechst High Intensity Objects (%)
One number for each entry, in %.

Below: 8 compounds and their reported Population Hoechst High Intensity Objects (%).
1. CCCCC1=NC2(CCCC2)C(=O)N1Cc1ccc(-c2ccccc2-c2nnn[nH]2)cc1
3
2. CN(C)C(=O)Cn1cc(-c2ccc(-c3cncc4ccccc34)cc2)cn1
6
3. Cl.NCCc1ccc(O)c(O)c1 [DOPAMINE HYDROCHLORIDE]
6
4. CC(=O)Nc1cccc2c1c(Sc1ccc(Cl)cc1)c(C)n2CC(=O)O
6
5. O=C(NCCN1CCC(n2c(=O)[nH]c3cc(Cl)ccc32)CC1)c1ccc(F)cc1 [HALOPEMIDE]
3
6. CCCCCC(O)/C=C/[C@H]1C(=O)CC(O)C1C/C=C\CCCC(=O)O (stereo partly drawn)
3
7. Cc1cccc(NC(=O)CN2CCC(c3ccccn3)CC2)c1.Cl.Cl
3
8. CC(C)c1noc(N2CCC(COc3ccc(-c4ccc(S(C)(=O)=O)cc4)nc3)CC2)n1
3

Could you tell me Population Hoechst High Intensity Objects (%) for each of these compounds? They are listed below.
1. C[C@H](N)COC(=O)[C@@H](CCCCN)NC(=O)Cc1c(-c2ccc3ccccc3c2)[nH]c2c1ccc1ccccc12
2. O=C(CCCc1ccccc1)Nc1nc2ccccc2c(=O)s1
3. CC(/C=C1\SC(=S)N(CCCC(=O)Nc2ccc(C(=O)O)c(O)c2)C1=O)=C\c1ccccc1
4. CC(C)COc1ccc(CNC(=O)N(Cc2ccc(F)cc2)C2CCN(C)CC2)cc1
5. CN1CCN(c2cc(-c3ccccc3)nc(N)n2)CC1
6. N#Cc1cc(F)cc(-c2nc(-c3ccc(F)cn3)no2)c1
7. CCc1cc2cc(NS(=O)(=O)c3ccc(C#N)cc3)ccc2n(CC)c1=O
8. Cc1c(CC(=O)O)c2cccnc2n1Cc1ccc(S(C)(=O)=O)cc1C(F)(F)F

// result
1: 5; 2: 5; 3: 3; 4: 3; 5: 2; 6: 1; 7: 3; 8: 5

Hey, can you go through the list below and give me Population Hoechst High Intensity Objects (%) for every item?
1. COc1ccccc1N1CCN(C[C@@H](C(=O)NC(C)(C)C)c2ccccc2)CC1.Cl.Cl
2. O=C1[C@H](Cc2ccc(O)cc2)N2C(=O)CCN(C(=O)NCc3ccccc3)[C@H]2CN1Cc1cccc2ccccc12
3. Cc1onc(-c2ccccc2Cl)c1C(=O)N(C)c1ccc(Cl)cc1
4. CC(C)(C)c1cc(NC(=O)Nc2ccc(-c3cn4c(n3)sc3cc(OCCN5CCOCC5)ccc34)cc2)no1
5. COC[C@@H](c1ccc(C(F)(F)F)cc1)N1CCN(C2(C)CCN(C(=O)c3c(C)ncnc3C)CC2)C[C@@H]1C.O=C(O)/C=C\C(=O)O [VICRIVIROC MALEATE]
6. COc1cccc2c1c(NS(=O)(=O)c1ccc(Cl)s1)nn2Cc1cccc(CNC(=O)C(C)(C)O)c1
7. CCCCC(=O)N(Cc1ccc(-c2ccccc2-c2nnn[nH]2)cc1)[C@H](C(=O)O)C(C)C
8. CN[C@@H](C)C(=O)N[C@H](C(=O)N1CCC[C@H]1C(=O)Nc1snnc1-c1ccccc1)C1CCCCC1

// result
5
7
9
8
3
5
6
1

----------
Exercise: state measured Total Cell Count for each of the compounds provided.
System: Fibroblast
Assay: Multiplex assay against human fibroblast
Assay type: toxicity, cell-based
Settings: 24 h, 10 µM, compound concentration 10 uM, replicate 2
Give bare numbers.

1. Br.CS(=O)(=O)Nc1c(O)ccc2c1CCCC2C1=NCCN1 (configuration not stated)
130
2. CCCCC(=O)N(Cc1ccc(-c2ccccc2-c2nnn[nH]2)cc1)[C@H](C(=O)O)C(C)C
130

Here are 7 compounds. What values of Total Cell Count were reported for them?
1. C[C@H](N)COC(=O)[C@@H](CCCCN)NC(=O)Cc1c(-c2ccc3ccccc3c2)[nH]c2c1ccc1ccccc12
2. Cl.N=C(N)NC(=O)Cc1c(Cl)cccc1Cl [GUANFACINE HYDROCHLORIDE]
3. CN1CCN(c2cc(-c3ccccc3)nc(N)n2)CC1
4. CN[C@@H](C)C(=O)N[C@H](C(=O)N1CCC[C@H]1C(=O)Nc1snnc1-c1ccccc1)C1CCCCC1 [GDC-0152]
5. O=C(CCCc1ccccc1)Nc1nc2ccccc2c(=O)s1
6. N#Cc1cc(F)cc(-c2nc(-c3ccc(F)cn3)no2)c1
7. Cc1onc(-c2ccccc2Cl)c1C(=O)N(C)c1ccc(Cl)cc1

// result
[159, 114, 107, 157, 134, 120, 149]

Quick request: Total Cell Count for each listed item, please.
1. Cc1c(CC(=O)O)c2cccnc2n1Cc1ccc(S(C)(=O)=O)cc1C(F)(F)F [FEVIPIPRANT]
2. COC[C@@H](c1ccc(C(F)(F)F)cc1)N1CCN(C2(C)CCN(C(=O)c3c(C)ncnc3C)CC2)C[C@@H]1C.O=C(O)/C=C\C(=O)O [VICRIVIROC MALEATE]
3. NCCc1cn(S(=O)(=O)c2c(Cl)nc3sccn23)c2ccccc12.O=C(O)C(=O)O

// result
1. 146
2. 183
3. 237

----------
System: Fibroblast
Assay: Multiplex assay against human fibroblast
Type: toxicity, cell-based
Details: 48 h, 1 µM, compound concentration 1 uM, replicate 1
resultType: Population Apoptotic (%)
One number for each entry, in %.

Use these answered entries as a reference point.
1. COc1ccccc1N1CCN(C[C@@H](C(=O)NC(C)(C)C)c2ccccc2)CC1.Cl.Cl
84
2. CN1CCN(c2cc(-c3ccccc3)nc(N)n2)CC1
70
3. O=C(NCCN1CCC(n2c(=O)[nH]c3cc(Cl)ccc32)CC1)c1ccc(F)cc1 [HALOPEMIDE]
52
4. Cc1cnc(-c2cc(N3CCN(C(=O)CCS(C)(=O)=O)CC3)ncc2Cl)c(C)c1
69
5. CN[C@@H](C)C(=O)N[C@H](C(=O)N1CCC[C@H]1C(=O)Nc1snnc1-c1ccccc1)C1CCCCC1
47
6. CC[C@@H](C)Nc1nc(C)nc2c(-c3ccc(OC)nc3C)c(C)nn12
54
7. CCCCCC(O)/C=C/[C@H]1C(=O)CC(O)C1C/C=C\CCCC(=O)O (some centres undefined)
50
8. CCCOc1ccc2[nH]cc(C3=CCNCC3)c2n1.Cl
69

Proceed to the following item.
// query Under Fibroblast: Population Apoptotic (%) value of CCCCC(=O)N(Cc1ccc(-c2ccccc2-c2nnn[nH]2)cc1)[C@H](C(=O)O)C(C)C ?
// result 80

----------
Test system: Fibroblast
Assay: Multiplex assay against human fibroblast
Assay type: toxicity, cell-based
Conditions: 24 h, 10 µM, compound concentration 10 uM, replicate 2
resultType: Total Cell Count
One number for each entry.

Here's what some known entries look like.
1) Cc1cccc(NC(=O)CN2CCC(c3ccccn3)CC2)c1.Cl.Cl
105
2) CCCCC1=NC2(CCCC2)C(=O)N1Cc1ccc(-c2ccccc2-c2nnn[nH]2)cc1 [IRBESARTAN]
125
3) Cc1sc2c(c1C)C(c1ccc(Cl)cc1)=N[C@@H](CC(=O)NCCCCCCCCNC(=O)COc1cccc3c1C(=O)N(C1CCC(=O)NC1=O)C3=O)c1nnc(C)n1-2 (stereo partly drawn)
103

Look up Total Cell Count for the entries below, preserving their order.
1. CC(C)(C)c1cc(NC(=O)Nc2ccc(-c3cn4c(n3)sc3cc(OCCN5CCOCC5)ccc34)cc2)no1 [QUIZARTINIB]
2. Cc1cnc(-c2cc(N3CCN(C(=O)CCS(C)(=O)=O)CC3)ncc2Cl)c(C)c1
3. CC[C@@H](C)Nc1nc(C)nc2c(-c3ccc(OC)nc3C)c(C)nn12 [PEXACERFONT]

// result
[179, 116, 143]

Please supply Total Cell Count for each of the following items, keeping them in order.
1. COc1ccccc1N1CCN(C[C@@H](C(=O)NC(C)(C)C)c2ccccc2)CC1.Cl.Cl
2. Cc1noc(-c2ccc(-c3ccc(CC(=O)O)cc3)cc2)c1NC(=O)O[C@H](C)c1ccccc1Cl

// result
[116, 98]

----------
I'd appreciate it if you could supply Population Membrane Permeable-Phenotype (%) values for the items below.
Tested on: HEK-293T
Assay: Multiplex assay against HEK293T
Format: toxicity, cell-based
Settings: human, 24 h, 1 µM, compound concentration 1 uM, replicate 1
Answers are plain numbers, in %.

1) Cl.NCCc1ccc(O)c(O)c1 [DOPAMINE HYDROCHLORIDE]
1
2) N#Cc1cc(F)cc(-c2nc(-c3ccc(F)cn3)no2)c1
0
3) CCCCC1=NC2(CCCC2)C(=O)N1Cc1ccc(-c2ccccc2-c2nnn[nH]2)cc1
0
4) CN1CCN(c2cc(-c3ccccc3)nc(N)n2)CC1
1

With those in mind, consider the next molecule.
// query What measured Population Membrane Permeable-Phenotype (%) goes with COc1ccccc1N1CCN(C[C@@H](C(=O)NC(C)(C)C)c2ccccc2)CC1.Cl.Cl ?
// result 0
